Reference source for all entries: patent US20220017615A1

Molecular target: T1, His-tagged CD47 recombinant protein, CD47-His (human, UniProt Q08722 19-141, limits assumed)
T1 construct: it is not restated for CD47-His; also called human CD47-His protein; antigen CD47-His; not shown: His tag
Assay: ELISA on coated CD47-His; Ab 0.107 nM
EXPERIMENTAL_ENDPOINT: OD450 nm

binder="4D10B11 (antibody, V domains shown, Murine hybridoma antibody purified on protein G) VH: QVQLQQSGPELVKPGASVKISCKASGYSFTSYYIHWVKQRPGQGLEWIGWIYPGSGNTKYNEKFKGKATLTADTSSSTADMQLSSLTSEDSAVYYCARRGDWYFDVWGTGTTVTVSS VL: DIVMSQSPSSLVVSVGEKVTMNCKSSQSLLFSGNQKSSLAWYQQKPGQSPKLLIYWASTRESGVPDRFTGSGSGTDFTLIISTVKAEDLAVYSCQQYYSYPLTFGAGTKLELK" result_value=2.13
